Reported EC50 at 72 h values are given for each entry in this list.
# Method notes: Cytotoxicity in primary cells (CellTiter-Glo), PBMC
# Format: cell-based
# Cond: 72 h, mean of three tests
Just the number in µM, nothing appended.

Q. Please report the recorded EC50 at 72 h for O=S1(=O)C=CC(OS(=O)(=O)c2ccc(-c3ccccc3)cc2)C1 (stereo not drawn) .
A. 0.5

Q. Please report the recorded EC50 at 72 h for O=S1(=O)C=CC(OS(=O)(=O)c2ccc3ccccc3c2)C1 (stereo not drawn) .
A. 0.4

Q. Please report the recorded EC50 at 72 h for O=S1(=O)C=CC(OS(=O)(=O)c2ccc(Oc3ccccc3)cc2)C1 (stereo not drawn) .
A. 21

* * *

# Test system: immortalized human T lymphocyte Jurkat cells
# Method notes: Cytotoxicity in cancer cell lines (CellTiter-Glo), Jurkat
# Type: cell-based
# Cond: 48 h, Jurkat cells, mean of three tests, read-out: Cytotoxicity EC50 at 48 hours, Jurkat
Reported pEC50 values are given for each entry in this list.
Units for pEC50: none; it is -log10 of a concentration expressed in mol/L.

Recorded results for 8 compounds are shown here.
O=C(COC1C=CS(=O)(=O)C1)c1ccc2ccccc2c1 (stereo not drawn) | 6.30
CN(C1CCS(=O)(=O)C1)S(=O)(=O)c1ccc2ccccc2c1 (stereo not drawn) | 5.05
O=S1(=O)C=CC(OCCc2ccc3ccccc3c2)C1 (stereo not drawn) | 5.00
O=S1(=O)C=CC(OS(=O)(=O)c2ccc(-c3ccccc3)cc2)C1 (stereo not drawn) | 5.05
O=S1(=O)C=CC(OCc2ccc(-c3ccccc3)cc2)C1 (stereo not drawn) | 5.22
O=C(Nc1ccc(-c2ccccc2)cc1)NC1C=CS(=O)(=O)C1 (stereo not drawn) | 4.07
CN(C1C=CS(=O)(=O)C1)S(=O)(=O)c1ccc2ccccc2c1 (stereo not drawn) | 4.28
O=C(Cc1ccc2ccccc2c1)NC1C=CS(=O)(=O)C1 (stereo not drawn) | 4.59

Proceeding to the next compound to report its pEC50.
Q. Please report the recorded pEC50 for O=S1(=O)C=CC(OCc2ccc3ccccc3c2)C1 (stereo not drawn) .
A. 5.15

* * *

# Method notes: Cytotoxicity in primary cells (CellTiter-Glo), PBMC
# Format: cell-based
# Cond: 48 h, mean of three tests
Reported endpoint: EC50 at 48 h (nM)
Just the number in nM, nothing appended.

Q. Please report the recorded EC50 at 48 h for O=S1(=O)C=CC(OS(=O)(=O)c2ccc(-c3ccccc3)cc2)C1 (stereo not shown) [(17)] .
A. 500

Q. Please report the recorded EC50 at 48 h for CC(C)Nc1cc(-c2c[nH]c(C(=O)N[C@H](CO)c3cccc(Cl)c3)c2)c(Cl)cn1 [Ulixertinib, ulixertinib, reference compound] .
A. 31000

Q. Please report the recorded EC50 at 48 h for O=S1(=O)C=CC(OS(=O)(=O)c2ccc(Oc3ccccc3)cc2)C1 (stereo not shown) [(18)] .
A. 200

Q. Please report the recorded EC50 at 48 h for O=S1(=O)C=CC(OS(=O)(=O)c2ccc3ccccc3c2)C1 (stereo not shown) [(1)] .
A. 400

* * *

# System: melanoma cell line A375
# Method notes: Cytotoxicity in cancer cell lines (CellTiter-Glo), A375
# Cond: Homo sapiens, A-375, 72 h, read-out: Cytotoxicity EC50 at 72 hours, A375, 72 h; A375 cells; mean of three tests
Reported endpoint: log10(EC50) (log10 of the value in µM)
Please interpret these as log10 of EC50 where EC50 is in µM.

Recorded results for 8 compounds are shown here.
O=C(Nc1ccc2ccccc2c1)OC1C=CS(=O)(=O)C1 (centres unmarked) [(10)] | 1.66
CN(C1CCS(=O)(=O)C1)S(=O)(=O)c1ccc2ccccc2c1 (centres unmarked) [(16)] | 2.00
O=C(NC1C=CS(=O)(=O)C1)c1ccc2ccccc2c1 (centres unmarked) [(14)] | 1.85
O=S1(=O)C=CC(OS(=O)(=O)c2ccc3ccccc3c2)C1 (centres unmarked) [(1)] | -0.10
O=S1(=O)C=CC(OCc2ccc3ccccc3c2)C1 (centres unmarked) [(4)] | 0.70
O=C(Nc1ccc(-c2ccccc2)cc1)OC1C=CS(=O)(=O)C1 (centres unmarked) [(11)] | 1.99
O=C(COC1C=CS(=O)(=O)C1)c1ccc2ccccc2c1 (centres unmarked) [(8)] | 1.66
O=S1(=O)C=CC(OCc2ccc(Oc3ccccc3)cc2)C1 (centres unmarked) [(6)] | 1.28

Q. Please report the recorded log10(EC50) for O=S1(=O)C=CC(OS(=O)(=O)c2ccc(-c3ccccc3)cc2)C1 (centres unmarked) [(17)] .
A. 1.00

Q. Please report the recorded log10(EC50) for O=C(COC1C=CS(=O)(=O)C1)c1ccc(-c2ccccc2)cc1 (centres unmarked) [(9)] .
A. 1.67

Q. Please report the recorded log10(EC50) for O=S1(=O)C=CC(OCc2ccc(-c3ccccc3)cc2)C1 (centres unmarked) [(5)] .
A. 1.88
